Reference source: ChEMBL document CHEMBL4819103

Attribute: Activity
Target: Proteasome subunit beta type-8 (Homo sapiens) (UniProt P28062)
Sequence (P28062 whole entry): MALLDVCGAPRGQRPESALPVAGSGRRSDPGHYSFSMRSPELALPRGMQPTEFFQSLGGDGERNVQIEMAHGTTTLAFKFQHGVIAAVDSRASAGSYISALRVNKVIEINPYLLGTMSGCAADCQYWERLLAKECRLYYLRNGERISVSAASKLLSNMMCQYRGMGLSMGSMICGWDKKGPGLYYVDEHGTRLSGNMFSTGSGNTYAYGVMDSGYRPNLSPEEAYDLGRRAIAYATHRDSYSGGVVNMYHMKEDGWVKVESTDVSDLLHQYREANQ
Test: Inhibition of human chymotrypsin-like beta 5i subunit of iCP assessed as residual activity using suc-LLVY-AMC as flurogenic substrate at 10 uM for 90 mins by fluorescence-based assay
Metric: Activity

> print(dat)
                 substance.smiles  result
1            Nc1ccc2[nH]c(S)nc2c1     49%
2  CC(=O)Nc1ccc2[nH]c(=S)[nH]c2c1     57%
3        Cc1cccc2[nH]c(=S)[nH]c12     84%
4           COc1ccc2[nH]c(S)nc2c1     97%
5          CCOc1ccc2[nH]c(S)nc2c1     80%
6        Cc1ccc2[nH]c(=S)[nH]c2c1     95%
